tested on: CHLA-266 primitive neuroectodermal tumor (PNET) cell line; experiment: DIMSCAN cytotoxicity, fenretinide + L-threo-sphinganines 3:1 (Example B9); assay type: cell-based, human; details: 4-HPR 3 μM + L-threo-sphinganine 1 μM, 96 h
Classify as follows. Reported Fa (fraction affected) greater than or equal to 0.8: Yes. Reported Fa (fraction affected) below: No.

MOLECULE	TARGET_UNDER_TEST	LABEL
CCCCCCCCCCCCCC[C@H](O)[C@@H](N)CO [C17, (2S,3S)-2-amino-1,3-heptadecanediol]	CHLA-266 primitive neuroectodermal tumor (PNET) cell line	Yes
CCCCCCCCCCC[C@H](O)[C@@H](N)CO [C14]	CHLA-266 primitive neuroectodermal tumor (PNET) cell line	No
CCCCCCCCCCCC[C@H](O)[C@@H](N)CO [C15]	CHLA-266 primitive neuroectodermal tumor (PNET) cell line	No
CCCCCCCCCCCCCCC[C@H](O)[C@@H](N)CO [C18, (2S,3S)-2-amino-1,3-octadecanediol, reference compound]	CHLA-266 primitive neuroectodermal tumor (PNET) cell line	Yes

###

system: CHLA-266 primitive neuroectodermal tumor (PNET) cell line; experiment: DIMSCAN cytotoxicity, fenretinide + L-threo-sphinganines 3:1 (Example B9); format: cell-based, human; conditions: 4-HPR 9 μM + L-threo-sphinganine 3 μM, 96 h
PROPERTY_MEASURED: CI (Combination Index)

COMPOUND	DATA_VALUE
CCCCCCCCCCCCCC[C@H](O)[C@@H](N)CO [C17, (2S,3S)-2-amino-1,3-heptadecanediol]	0.7
CCCCCCCCCCCC[C@H](O)[C@@H](N)CO [C15]	0.4
CCCCCCCCC[C@H](O)[C@@H](N)CO [C12]	1.0
CCCCCCCCCCC[C@H](O)[C@@H](N)CO [C14]	1.6
CCCCCCCCCCCCCCC[C@H](O)[C@@H](N)CO [C18, (2S,3S)-2-amino-1,3-octadecanediol, reference compound]	1.5

###

CI values by entry
tested on: PC-3 prostate adenocarcinoma cell line; assay: DIMSCAN cytotoxicity, fenretinide + L-threo-sphinganines 3:1 (Example B17); format: cell-based, human; settings: 4-HPR 1.5 μM + L-threo-sphinganine 0.5 μM
PROPERTY_MEASURED: CI

COMPOUND	PROPERTY_MEASURED	DATA_VALUE
CCCCCCCCCCCCCC[C@H](O)[C@@H](N)CO [C17, (2S,3S)-2-amino-1,3-heptadecanediol]	CI	0.7
CCCCCCCCCCCCCCCCC[C@H](O)[C@@H](N)CO [C20, (2S,3S)-2-amino-1,3-icosanediol]	CI	1.0
CCCCCCCCCCCCCCCC[C@H](O)[C@@H](N)CO [C19, (2S,3S)-2-amino-1,3-nonadecanediol]	CI	1.0

###

tested on: A-2058 melanoma cell line; assay: DIMSCAN cytotoxicity, fenretinide + L-threo-sphinganines 3:1 (Example B11); format: cell-based, human; conditions: 4-HPR 9 μM + L-threo-sphinganine 3 μM, 96 h
Please enter 1.0 where Fa (fraction affected) is greater than or equal to 0.9, and 0.0 where it is lower.

MOLECULE	LABEL
CCCCCCCCCCCCCC[C@H](O)[C@@H](N)CO	0.0
CCCCCCCCCCCC[C@H](O)[C@@H](N)CO	0.0
CCCCCCCCCCCCCCCCCC[C@H](O)[C@@H](N)CO	1.0
CCCCCCCCCCC[C@H](O)[C@@H](N)CO	0.0
CCCCCCCCCCCCCCCCC[C@H](O)[C@@H](N)CO	1.0
CCCCCCCCCCCCCCC[C@H](O)[C@@H](N)CO [C18, (2S,3S)-2-amino-1,3-octadecanediol, reference compound]	0.0
CCCCCCCCCCCCCCCC[C@H](O)[C@@H](N)CO	1.0
CCCCCCCCC[C@H](O)[C@@H](N)CO	0.0

These data points were gathered from patent US20110152267A1.
